target: Syk catalytic domain (aa 356-635 with a C-terminal His-tag) (Homo sapiens, UniProt P43405); construct: His-tag (C); made in house; assay: In vitro Syk kinase activity measured by trFRET, Syk catalytic domain; assay type: biochemical; details: Syk catalytic domain (aa 356-635), trFRET, 0.001 mM ATP
Assay Readout: IC50

{"Smiles Input": "CCc1c[nH]c2ncc3c(-c4ccc(OC)cc4)nn(C)c3c12", "Reading": "1000 to 10000 nM"}
{"Smiles Input": "CS(=O)(=O)c1ccc(-c2nc([C@H]3CCCNC3)n3c2cnc2[nH]ccc23)cc1", "Reading": "100 to 1000 nM"}
{"Smiles Input": "COc1ccc(-c2nn(C)c3c2cnc2[nH]cc(C#N)c23)cc1", "Reading": "< 100 nM"}
{"Smiles Input": "COc1ccc2c(n1)c(-c1cc3c(ncc4cnn(C)c43)[nH]1)cn2C", "Reading": "100 to 1000 nM"}
{"Smiles Input": "COc1ccc2c(c1)c(-c1cc3c(ncc4cnc(CCCNC(C)=O)n43)[nH]1)cn2C", "Reading": "< 100 nM"}
{"Smiles Input": "Cn1ncc2cnc3[nH]c(-c4cccnc4)cc3c21", "Reading": "100 to 1000 nM"}
